Tested on: gastric acid secretion
EXPERIMENT: Gastric Antisecretory Activity in the Heidenhain Pouch Dog
Assay type: in vivo, female dogs
MEASUREMENT CONTEXT: intravenous, relative to cimetidine = 1.0
MEASUREMENT TYPE: Potency Ratio [cimetidine = 1.0] (INTRAVENOUS)

In the examples that follow, each entry is paired with its recorded Potency Ratio [cimetidine = 1.0] (INTRAVENOUS).
{"COMPOUND": "CN(C)Cc1ccc(CSCCNc2c(N)c(=O)c2=O)o1 [Example 2]", "RESULT VALUE": "~ 20"}
{"COMPOUND": "Nc1c(NCCCOc2cccc(CN3CCCCCC3)c2)c(=O)c1=O [Example 10i]", "RESULT VALUE": "> 40"}
{"COMPOUND": "Nc1c(NCCCOc2cccc(CN3CCCCC3)c2)c(=O)c1=O [Example 1]", "RESULT VALUE": 87}

API: the following record is the query input.
[Q] Assign Potency Ratio [cimetidine = 1.0] (INTRAVENOUS) to the following record: CN(C)Cc1cccc(OCCCNc2c(N)c(=O)c2=O)c1 [Example 9]
[A] ~ 40
